assay: Human HepG2 cell viability assay in 384 well format; type: toxicity, cell-based; design: dose 125 nL, time 70.5 hour; concentration not given beside the values; settings: HepG2 cells, read-out: Inhibition
Each entry below carries its reported cytotoxicity at 70.5 h.

COMPOUND	cytotoxicity at 70.5 h [%]
CCOC(C)c1nccn1CC(=O)Nc1cc(C)on1 (stereo not drawn)	-0.0484
Cc1cc(NC(=O)CCn2nc(C)c3ccccc32)n(C)n1	-1.96
Cc1[nH]ccc1C(=O)N1C[C@H]2CC[C@@H]1CN(S(=O)(=O)N(C)C)C2	-6.98
COc1ccc2c(c1)OCC(CNC(=O)c1cc(C(C)C)on1)C2 (stereo not drawn)	-20.5
COc1ccccc1OC1CN(C(=O)Cc2c(C)nc3ccccn23)C1	2.44
Cc1nsc(C(=O)NCCc2ccccc2)n1	-8.39
COCCn1/c(=N/C(=O)C(C)C)sc2cc(Cl)ccc21	21.1
COc1cc2ccn(CCS(C)(=O)=O)c(=O)c2cc1F	-2.4
CNc1cc(C2CN(Cc3cccnc3NC)CCO2)nc(C)n1 (stereo not drawn)	-2.49
Cc1cc(N2CCN(C(=O)c3cc(Cl)c[nH]3)CC2)nc(C(C)C)n1	-7.83
CC(C)(C)n1ccc(C(=O)N2CCCC(c3ncc[nH]3)C2)c1 (stereo not drawn)	-1.92
O=C(N1CCOCC1)N1CCC2(CCNC2)C1 (stereo not drawn)	-3.15
COCC(c1cccc(C(F)(F)F)c1)N(C)C(=O)c1ccoc1 (stereo not drawn)	-3.47
CCN(C(=O)CS(=O)(=O)c1cc(OC)c(OC)cc1C)C1CC1	-8.45
CN(C)c1ccccc1C(=O)N1C[C@@H](CN2CCOCC2)[C@@H](CO)C1	-3.02
Cc1sc(N)nc1-c1ccc(Cl)cc1	15.4
CC1=N[C@@]2(CC[C@@H]3CN(Cc4ccccc4C)C[C@@H]32)C(=O)N1CC1CC1	-9.24
COc1cc(N2CCCC(c3nccn3Cc3ccncc3)C2)ncn1 (stereo not drawn)	-6.57
C1CN(CCN2CCOCC2)CCN1	-0.136
NC(=O)CN1CCC(NC(=O)N2CCCC2c2ccncc2)CC1 (stereo not drawn)	-11.7
Cc1n[nH]c(C)c1CC(=O)N1CC[C@@](C)(O)[C@@H](Cc2ccccc2)C1	-16.1
Fc1cnccc1CN1CCC2(CCN2c2ncccn2)C1 (stereo not drawn)	-7.95
COc1ccc(Oc2ncccc2NC(=O)N2CC[C@H](O)C2)cc1	-1.8
